B1: TFE3 (parent)
chain: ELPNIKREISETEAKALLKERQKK

variants of: B1; experiment: protein stability index of a GFP-peptide fusion (GPS, HEK-293T) (PSI 1-6); higher = more stable; settings: c terminus: a fixed tail appended;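 note: lentivirally expressed fusions sorted by FACS into six bins by GFP to DsRed ratio, PSI derived from sequencing read proportions per bin multiplied by bin number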
Would you kindly list protein stability index for each of these variants?
Lab note: jot the number down without any unit.

Ask: May I ask what protein stability index has been recorded for ELPNIKREISETPAKALLKERQKK [E13P] ?
Reply: 3.92

Ask: Given the variant ELPNIKREISEAEAKALLKERQKK [T12A] , what is its reported protein stability index?
Reply: 2.86

Ask: Fill in: protein stability index of ELPNIKREICETEAKALLKERQKK [S10C] is ___
Reply: 3.2

Ask: Entry EMPNIKREISETEAKALLKERQKK [L2M] has what protein stability index?
Reply: 2.84

Ask: Which protein stability index value belongs to ELPNIKREISETEAKALLKERQKR [K24R] ?
Reply: 2.15

Ask: Look up protein stability index for this variant: ELPNIKREISETEAKALLKIRQKK [E20I]
Reply: 2.29

Ask: What value of protein stability index has been recorded for this entry: ELPNIKREIDETEAKALLKERQKK [S10D]
Reply: 2.53

Ask: Using the record for ELPNIKREISETEAKALLKWRQKK [E20W] , report its protein stability index.
Reply: 2.82

Ask: Find the recorded protein stability index belonging to ELPNIKREISETEAQALLKERQKK [K15Q] and report it.
Reply: 2.46

Ask: Give its protein stability index value. Item: ELPNIKREISETEAKALHKERQKK [L18H]
Reply: 2.56

Ask: Given ELPNDKREISETEAKALLKERQKK [I5D] , state its recorded protein stability index.
Reply: 5.33

Ask: # query: protein stability index of entry ELPNIKREISETEWKALLKERQKK [A14W]
Reply: 2.69

Ask: Bench note: what protein stability index did ELPNIKREISETEAKALLKERWKK [Q22W] show?
Reply: 2.4

Ask: # get_value(readout='protein stability index', item= ELPNIKREISETKAKALLKERQKK [E13K] )
Reply: 3.83

Ask: Look up protein stability index for this variant: ELPNIKPEISETEAKALLKERQKK [R7P]
Reply: 4.86

Ask: Fill in: protein stability index of ELPNISREISETEAKALLKERQKK [K6S] is ___
Reply: 2.5

Ask: What measured protein stability index goes with ELPNIKREKSETEAKALLKERQKK [I9K] ?
Reply: 4.95

Ask: Using the record for ELPNIKREISETEAIALLKERQKK [K15I] , report its protein stability index.
Reply: 2.21

Ask: What does the data say about its protein stability index? Entry: ELPNIKREISETEAKILLKERQKK [A16I]
Reply: 3.16

Ask: Given the variant ELPNIWREISETEAKALLKERQKK [K6W] , what is its reported protein stability index?
Reply: 2.01

Ask: Field request: protein stability index | item: ELPAIKREISETEAKALLKERQKK [N4A]
Reply: 2.88

Ask: // returns reported protein stability index for input ELHNIKREISETEAKALLKERQKK [P3H]
Reply: 2.57
